Molecular target: HCV polymerase (NS5B) type 1a (Hepatitis C virus genotype 1a, UniProt P26664)
Construct: made in house; host or cells: Escherichia coli (by the 'similar method' of the 1b enzyme)
Experiment: Assay of enzyme (HCV polymerase) inhibitory activity, type 1a enzyme
Type: biochemical, HCV type 1a (cloned from the blood of patients)
Details: HCV polymerase inhibitory activity (IC50), 1a, type 1a enzyme 1.5 μg/ml, 25° C., 60 min
Experimental: The evaluation of the HCV polymerase inhibitory activity of the compound of the present invention is explained in the following. This polymerase is an enzyme coded for by the non-structural protein region called NS5B on the genome RNA of HCV. i) Preparation of Enzyme (HCV Polymerase) […] The HCV polymerase inhibitory activity (IC50) of the compound of the present invention was calculated from the values of radioactivity of the enzyme reaction with and without the test substance. […]
Value Kind: IC50

See these solved cases before continuing.
For `CC(=O)N1CCN(S(=O)(=O)c2ccc(Br)cc2)[C@@H](C(=O)NCc2ccc(C(C)C)cc2)C1` , what is its reported IC50?
0.1 to 1 µM

For `CC(C)c1ccc(CNC(=O)[C@H]2CN(c3nc(Br)n[nH]3)CCN2S(=O)(=O)c2ccc(C(F)(F)F)cc2)cc1` , what is its reported IC50?
0.1 to 1 µM

For `COC(=O)c1sc(N2CCN(S(=O)(=O)c3ccc(C(F)(F)F)cc3)[C@@H](C(=O)NCc3ccc(C(C)C)cc3)C2)nc1C` , what is its reported IC50?
0.1 to 1 µM

For every record below, what is its IC50?
1. COC(=O)C(C)(C)c1ccc(CNC(=O)[C@H]2CN(C(C)=O)CCN2S(=O)(=O)c2ccc(C(C)C)cc2)cc1
2. CCCN(CCC)CCC(=O)N1CCN(S(=O)(=O)c2ccc(I)cc2)C(C(=O)NCc2ccc(N(C)C)cc2)C1 (stereo not drawn)

1: 0.1 to 1 µM; 2: > 1 µM
